Target: UniProt P32245
Sequence (P32245 whole entry): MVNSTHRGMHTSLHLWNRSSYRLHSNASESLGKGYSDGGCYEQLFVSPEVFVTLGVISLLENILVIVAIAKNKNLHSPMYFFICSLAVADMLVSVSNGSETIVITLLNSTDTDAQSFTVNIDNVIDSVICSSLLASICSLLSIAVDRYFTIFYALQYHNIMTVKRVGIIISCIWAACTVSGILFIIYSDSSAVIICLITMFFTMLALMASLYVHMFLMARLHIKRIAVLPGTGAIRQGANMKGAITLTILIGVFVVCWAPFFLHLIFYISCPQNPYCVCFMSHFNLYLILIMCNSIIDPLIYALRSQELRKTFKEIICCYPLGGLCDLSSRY
Test: Competitive inhibition binding assay, 125I-NDP-α-MSH, MC4-R
Parameters: expressed in transfected cells
ENDPOINT_NAME: inhibition at 1 µM (%)
Please respond with the number in % and leave the unit unwritten.

N=C(N)NCCCC1C(=O)N(CCc2c[nH]c3ccccc23)CCN1C(=O)C(Cc1ccc(Cl)cc1)NC(=O)C(COCc1ccccc1)NC(=O)CCCCCCN (stereo not drawn) [Example 17]	99

What inhibition at 1 µM value was documented for this molecule, N=C(N)NCCC[C@H]1C(=O)N2C(CC[C@@H]2COc2ccc3ccccc3c2)N1C(=O)[C@@H](Cc1ccc(Cl)cc1Cl)NC(=O)[C@@H]1CC[C@H](c2ccccc2)N1 (stereo partly drawn) [Example 115] ?
97

What inhibition at 1 µM value was documented for this molecule, [2H]N[C@@H](Cc1cnc[nH]1)C(=O)N[C@@H](Cc1ccccc1)C(=O)N1C2CC[C@H](COc3ccc4ccccc4c3)N2C(=O)[C@@H]1CCCCN (stereo partly drawn) [Example 111] ?
10

* * *

Molecular target: MC5-R (Homo sapiens)
Sequence (P33032 whole entry): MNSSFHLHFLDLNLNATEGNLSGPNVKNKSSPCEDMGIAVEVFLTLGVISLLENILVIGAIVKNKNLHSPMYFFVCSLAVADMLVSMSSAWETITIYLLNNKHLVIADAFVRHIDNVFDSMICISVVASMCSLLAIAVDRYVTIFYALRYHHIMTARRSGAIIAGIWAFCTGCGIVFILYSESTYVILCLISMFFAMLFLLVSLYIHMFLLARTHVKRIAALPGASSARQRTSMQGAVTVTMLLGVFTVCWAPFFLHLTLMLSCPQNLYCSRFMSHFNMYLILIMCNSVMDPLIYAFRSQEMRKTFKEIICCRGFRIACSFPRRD
Experiment: Competitive inhibition binding assay, 125I-NDP-α-MSH, MC5-R
Parameters: expressed in transfected cells
Conditions: 1 μM compound; inhibition of 125I-NDP-α-MSH binding; mean of triplicates; results less than 0% reported as 0%
ENDPOINT_NAME: Inhibition at 1 μM MC5-R (%)
Please respond with the number in % and leave the unit unwritten.

NCCCC[C@H]1C(=O)N2C(CC[C@@H]2COc2ccc3ccccc3c2)N1C(=O)[C@@H](Cc1ccccc1Cl)NC(=O)C1(N)CCc2ccccc2C1 (stereo partly drawn)	22
NCCCC[C@H]1C(=O)N2C(CC[C@@H]2COc2ccc3ccccc3c2)N1C(=O)[C@@H](Cc1ccccc1Cl)NC(=O)[C@@H]1NCCc2ccccc21 (stereo partly drawn)	20

# next compound below
What Inhibition at 1 μM MC5-R value was documented for this compound, "NC(=O)NCCC[C@H]1C(=O)N(CCc2ccc3ccccc3c2)CCN1C(=O)[C@@H](Cc1ccc(Cl)cc1Cl)NC(=O)[C@@H](N)COCc1ccccc1" ?
66

* * *

Biological target: UniProt:P33032
Experiment: Competitive inhibition binding assay, 125I-NDP-α-MSH, MC5-R
Parameters: expressed in transfected cells
Conditions: 1 μM compound; inhibition of 125I-NDP-α-MSH binding; mean of triplicates; results less than 0% reported as 0%
ENDPOINT_NAME: Inhibition at 1 μM MC5-R (%)
Please respond with the number in % and leave the unit unwritten.

NCCCNC(=O)[C@@H]1C[C@@H](OCc2ccccc2)CN1C(=O)[C@@H](Cc1ccccc1)NC(=O)C1CCC(CN)CC1 (stereo partly drawn)	0
NCCCNC(=O)[C@@H]1C[C@@H](OCc2ccccc2)CN1C(=O)[C@@H](Cc1ccccc1)NC(=O)C1(N)CCCCC1	0
NCCCC[C@H]1C(=O)N2C(CC[C@@H]2COc2ccc3ccccc3c2)N1C(=O)[C@@H](Cc1ccccc1Cl)NC(=O)[C@@H]1Cc2ccccc2CN1 (stereo partly drawn)	38
N=C(N)NCCCC1C(=O)N(CCc2c[nH]c3ccccc23)CCN1C(=O)C(Cc1ccccc1Cl)NC(=O)C1CCC(c2ccccc2)N1 (stereo not drawn)	19
NCCCNC(=O)[C@@H]1C[C@@H](OCc2ccccc2)CN1C(=O)[C@@H](Cc1ccccc1)NC(=O)[C@@H]1Cc2ccccc2N1	0

# next compound below
What Inhibition at 1 μM MC5-R value was documented for this compound, "NCCCNC(=O)[C@@H]1C[C@@H](OCc2ccccc2)CN1C(=O)[C@@H](Cc1ccccc1)NC(=O)[C@H](Cc1cnc[nH]1)NC(=O)CC1CCCCC1" ?
12

* * *

Target: MC1-R (B-16 mouse melanoma cells) (Mus musculus, UniProt Q01727)
Construct: B-16 mouse melanoma cells (containing MC1-R); endogenous in cells; host or cells: B-16 mouse melanoma cells
Sequence (Q01727 whole entry): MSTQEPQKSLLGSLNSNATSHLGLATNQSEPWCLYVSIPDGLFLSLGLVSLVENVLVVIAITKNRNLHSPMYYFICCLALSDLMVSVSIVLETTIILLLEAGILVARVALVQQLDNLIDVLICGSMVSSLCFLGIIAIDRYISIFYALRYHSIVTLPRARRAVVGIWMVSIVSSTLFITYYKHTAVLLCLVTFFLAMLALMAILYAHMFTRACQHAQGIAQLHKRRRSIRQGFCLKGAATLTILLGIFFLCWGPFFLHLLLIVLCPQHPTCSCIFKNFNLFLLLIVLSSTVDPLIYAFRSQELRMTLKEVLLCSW
Assay: Competitive inhibition binding assay, 125I-NDP-α-MSH, MC1-R
Conditions: 1 μM compound; inhibition of 125I-NDP-α-MSH binding; mean of triplicates; results less than 0% reported as 0%
ENDPOINT_NAME: Inhibition at 1 μM MC1-R (%)
Please respond with the number in % and leave the unit unwritten.

// worked examples, Inhibition at 1 μM MC1-R included
CNC(=O)NCCC[C@H]1C(=O)N(CCc2ccc3ccccc3c2)CCN1C(=O)[C@@H](Cc1ccc(Cl)cc1Cl)NC(=O)[C@@H](N)COCc1ccccc1	5
N=C(N)c1ccc(C[C@H]2C(=O)N(CCc3ccc4ccccc4c3)CCN2C(=O)[C@H](N)Cc2ccc(Cl)cc2Cl)cc1	5
NCCCC[C@H]1C(=O)N2C(CC[C@@H]2COc2ccc3ccccc3c2)N1C(=O)[C@@H](Cc1ccc(Cl)cc1)NC(=O)[C@@H](N)COCc1ccccc1 (stereo partly drawn)	90
NCCC[C@H]1CN(CCc2ccc3ccccc3c2)CCN1C(=O)[C@H](N)Cc1ccc(Cl)cc1Cl	0
NCCCC[C@H]1C(=O)N(CCc2ccc3ccccc3c2)CCN1C(=O)[C@@H](Cc1ccc(Cl)cc1Cl)NC(=O)C/C=C/c1ccccc1	14

What Inhibition at 1 μM MC1-R value was documented for this compound, "COC(=O)NCCC[C@H]1C(=O)N(CCc2ccc3ccccc3c2)CCN1C(=O)[C@@H](Cc1ccc(Cl)cc1Cl)NC(=O)[C@@H](N)COCc1ccccc1" ?
1

What Inhibition at 1 μM MC1-R value was documented for this compound, N=C(N)NCCCC1C(=O)N(CCc2c[nH]c3ccccc23)CCN1C(=O)C(Cc1ccccc1Cl)NC(=O)C1CCC(c2ccccc2)N1 (stereo not drawn) ?
62

* * *

This section presents molecules with their documented Inhibition at 1 μM MC3-R values.
Target: MC3-R (Homo sapiens, UniProt P41968)
Sequence (P41968 whole entry): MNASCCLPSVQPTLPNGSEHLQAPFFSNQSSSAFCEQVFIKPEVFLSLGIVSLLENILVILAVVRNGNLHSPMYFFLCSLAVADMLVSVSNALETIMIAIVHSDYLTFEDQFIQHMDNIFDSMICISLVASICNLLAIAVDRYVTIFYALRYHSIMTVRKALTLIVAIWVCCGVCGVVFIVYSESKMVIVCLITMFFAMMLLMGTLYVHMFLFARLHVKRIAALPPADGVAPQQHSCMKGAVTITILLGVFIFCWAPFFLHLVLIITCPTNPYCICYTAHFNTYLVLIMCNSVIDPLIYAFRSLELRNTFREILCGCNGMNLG
Experiment: Competitive inhibition binding assay, 125I-NDP-α-MSH, MC3-R
Parameters: expressed in transfected cells
Details: 1 μM compound; inhibition of 125I-NDP-α-MSH binding; mean of triplicates; results less than 0% reported as 0%
Non-standard residues stand in square brackets, D forms with d. Residues, ends and D or L forms follow the SMILES beside them. *: point of attachment. Hyp = O=C(O)[C@@H]1C[C@@H](O)CN1; Nle = CCCC[C@H](N)C(=O)O; NH(CH2)3NH2 = NCCCN*; Bn = c1ccc(C*)cc1
Please respond with the number in % and leave the unit unwritten.

NCCCC[C@H]1C(=O)N2C(CC[C@@H]2COc2ccc3ccccc3c2)N1C(=O)[C@@H](Cc1ccccc1Cl)NC(=O)C1(N)CCc2ccccc21 (stereo partly drawn) [Example 96]	0
NCCCC[C@H]1C(=O)N(CCc2ccccc2)CCN1C(=O)[C@@H](Cc1ccc(Cl)cc1)NC(=O)[C@@H](N)COCc1ccccc1 [Example 12]	39
N=C(N)NCCCC[C@H]1C(=O)N(CCc2ccc3ccccc3c2)CCN1C(=O)[C@H](N)Cc1ccc(Cl)cc1Cl [Example 67]	68
N=C(N)NCCC[C@H]1C(=O)N(CCc2c[nH]c3ccccc23)CCN1C(=O)[C@H](N)Cc1ccc(Cl)cc1Cl [Example 124]	57
NCCC[C@H]1C(=O)N(CCc2ccc3ccccc3c2)CCN1C(=O)[C@@H](Cc1ccc(Cl)cc1Cl)NC(=O)[C@@H](N)COCc1ccccc1 [Example 52]	25
CCCC(CCC)C(=O)N[C@@H](Cc1cnc[nH]1)C(=O)N[C@H](Cc1ccccc1)C(=O)N1C[C@H](OCc2ccccc2)C[C@H]1C(=O)NCCCN [Example 143]	0

What Inhibition at 1 μM MC3-R value was documented for this molecule, NCCCC[C@H]1C(=O)N(CCOc2ccc3ccccc3c2)CCN1C(=O)[C@@H](Cc1ccc(Cl)cc1)NC(=O)[C@@H]1Cc2ccccc2CN1 [Example 30] ?
35

What Inhibition at 1 μM MC3-R value was documented for this molecule, CCCC[C@H](NC(C)=O)C(=O)N[C@@H](C)C(=O)N[C@@H](Cc1cnc[nH]1)C(=O)N[C@H](Cc1ccccc1)C(=O)N1C[C@H](OCc2ccccc2)C[C@H]1C(=O)NCCCN [Example 133] (Ac-[Nle]AH[dF][Hyp](Bn)-{NH(CH2)3NH2}) ?
13

What Inhibition at 1 μM MC3-R value was documented for this molecule, NCCCNC(=O)C1CC(OCc2ccccc2)CN1C(=O)C(Cc1ccccc1)NC(=O)C1NCCc2ccccc21 (stereo not drawn) [Example 160] ?
36

What Inhibition at 1 μM MC3-R value was documented for this molecule, NCCCNC(=O)[C@@H]1C[C@@H](OCc2ccccc2)CN1C(=O)[C@@H](Cc1ccccc1)NC(=O)[C@H](N)Cc1ccc2ccccc2c1 [Example 158] ?
5

What Inhibition at 1 μM MC3-R value was documented for this molecule, NCCCNC(=O)[C@@H]1C[C@@H](OCc2ccccc2)CN1C(=O)[C@@H](Cc1ccccc1)NC(=O)[C@H](N)C(c1ccccc1)c1ccccc1 [Example 173] ?
13

What Inhibition at 1 μM MC3-R value was documented for this molecule, NCCCNC(=O)[C@@H]1C[C@@H](OCc2ccccc2)CN1C(=O)[C@@H](Cc1ccccc1)NC(=O)[C@H](N)C1Cc2ccccc2C1 [Example 175] ?
0
